Source listed as the Immune Epitope Database (IEDB).

- TEST TARGET: HLA-A*29:02
- ASSAY SUMMARY: IEDB peptide-MHC binding, purified MHC/competitive/radioactivity; filed as Kd, often an IC50 or EC50 that approximates it; bounds were set here for any values at or beyond the usual limits of such assays
- ASSAY CONDITIONS: source organism: Mammarenavirus juninense
MEASUREMENT LABEL: Kd (nM)
Output spec: scalar in nM, unitless text.

Value of measured Kd for the entry `YCNYTKFWY` : 2000

Value of measured Kd for the entry `VGEEFFHQY` : 2380

Value of measured Kd for the entry `LAGLFIDAGY` : 54.3

###

- TEST TARGET: HLA-B*15:01
- ASSAY SUMMARY: IEDB peptide-MHC binding, purified MHC/competitive/fluorescence; filed as Kd, often an IC50 or EC50 that approximates it; bounds were set here for any values at or beyond the usual limits of such assays
- ASSAY CONDITIONS: source organism: Orthohantavirus puumalaense
MEASUREMENT LABEL: Kd

Value of measured Kd for the entry `LRYGNVLDV` : ≥ 20 µM

###

- TEST TARGET: HLA-C*03:03
- ASSAY SUMMARY: IEDB peptide-MHC binding, purified MHC/direct/fluorescence; filed as Kd, often an IC50 or EC50 that approximates it; bounds were set here for any values at or beyond the usual limits of such assays
- ASSAY CONDITIONS: source organism: Giardia lamblia ATCC 50803
MEASUREMENT LABEL: pKd
Reminder that pKd means the negative base-10 logarithm of the concentration expressed in mol/L.

Value of measured pKd for the entry `YMRERFEPM` : 6.34

###

- TEST TARGET: HLA-A*31:01
- ASSAY SUMMARY: IEDB peptide-MHC binding, purified MHC/direct/fluorescence; filed as Kd, often an IC50 or EC50 that approximates it; bounds were set here for any values at or beyond the usual limits of such assays
- ASSAY CONDITIONS: source organism: Yellow fever virus
MEASUREMENT LABEL: Kd

Value of measured Kd for the entry `EVRLATMLF` : ≥ 20 µM

###

- TEST TARGET: HLA-A*68:01
- ASSAY SUMMARY: IEDB peptide-MHC binding, purified MHC/competitive/radioactivity; filed as Kd, often an IC50 or EC50 that approximates it; bounds were set here for any values at or beyond the usual limits of such assays
- ASSAY CONDITIONS: source organism: Dengue virus 3 Martinique/1243/1999
MEASUREMENT LABEL: pKd
Reminder that pKd means the negative base-10 logarithm of the concentration expressed in mol/L.

Value of measured pKd for the entry `MSAAVKDER` : 7.13

###

- TEST TARGET: HLA-B*15:09
- ASSAY SUMMARY: IEDB peptide-MHC binding, purified MHC/direct/fluorescence; filed as Kd, often an IC50 or EC50 that approximates it; bounds were set here for any values at or beyond the usual limits of such assays
- ASSAY CONDITIONS: source organism: Vibrio vulnificus CMCP6
Can you tell me Kd for the items I'm about to list?

Value of measured Kd for the entry `YQRALHTSI` : ≥ 20 µM

Value of measured Kd for the entry `IEFIEVVRL` : ≥ 20 µM

###

- TEST TARGET: HLA-B*46:01
- ASSAY SUMMARY: IEDB peptide-MHC binding, purified MHC/direct/fluorescence; filed as Kd, often an IC50 or EC50 that approximates it; bounds were set here for any values at or beyond the usual limits of such assays
- ASSAY CONDITIONS: source organism: Burkholderia mallei
pKd: −log10 of the molar value.
Can you tell me pKd for the items I'm about to list?

Value of measured pKd for the entry `AVAVARVAA` : ≤ 4.70

Value of measured pKd for the entry `APAKKAAAK` : ≤ 4.70
